The origin of these recorded values is patent US12630498B2.

# TARGET_ENTITY: human Cystic Fibrosis Transmembrane Conductance Regulator (CFTR) harboring the ΔF508 mutation (Homo sapiens, UniProt P13569, DEL508-508)
# Sequence (P13569 with tags, fused parts or gaps DEL508-508): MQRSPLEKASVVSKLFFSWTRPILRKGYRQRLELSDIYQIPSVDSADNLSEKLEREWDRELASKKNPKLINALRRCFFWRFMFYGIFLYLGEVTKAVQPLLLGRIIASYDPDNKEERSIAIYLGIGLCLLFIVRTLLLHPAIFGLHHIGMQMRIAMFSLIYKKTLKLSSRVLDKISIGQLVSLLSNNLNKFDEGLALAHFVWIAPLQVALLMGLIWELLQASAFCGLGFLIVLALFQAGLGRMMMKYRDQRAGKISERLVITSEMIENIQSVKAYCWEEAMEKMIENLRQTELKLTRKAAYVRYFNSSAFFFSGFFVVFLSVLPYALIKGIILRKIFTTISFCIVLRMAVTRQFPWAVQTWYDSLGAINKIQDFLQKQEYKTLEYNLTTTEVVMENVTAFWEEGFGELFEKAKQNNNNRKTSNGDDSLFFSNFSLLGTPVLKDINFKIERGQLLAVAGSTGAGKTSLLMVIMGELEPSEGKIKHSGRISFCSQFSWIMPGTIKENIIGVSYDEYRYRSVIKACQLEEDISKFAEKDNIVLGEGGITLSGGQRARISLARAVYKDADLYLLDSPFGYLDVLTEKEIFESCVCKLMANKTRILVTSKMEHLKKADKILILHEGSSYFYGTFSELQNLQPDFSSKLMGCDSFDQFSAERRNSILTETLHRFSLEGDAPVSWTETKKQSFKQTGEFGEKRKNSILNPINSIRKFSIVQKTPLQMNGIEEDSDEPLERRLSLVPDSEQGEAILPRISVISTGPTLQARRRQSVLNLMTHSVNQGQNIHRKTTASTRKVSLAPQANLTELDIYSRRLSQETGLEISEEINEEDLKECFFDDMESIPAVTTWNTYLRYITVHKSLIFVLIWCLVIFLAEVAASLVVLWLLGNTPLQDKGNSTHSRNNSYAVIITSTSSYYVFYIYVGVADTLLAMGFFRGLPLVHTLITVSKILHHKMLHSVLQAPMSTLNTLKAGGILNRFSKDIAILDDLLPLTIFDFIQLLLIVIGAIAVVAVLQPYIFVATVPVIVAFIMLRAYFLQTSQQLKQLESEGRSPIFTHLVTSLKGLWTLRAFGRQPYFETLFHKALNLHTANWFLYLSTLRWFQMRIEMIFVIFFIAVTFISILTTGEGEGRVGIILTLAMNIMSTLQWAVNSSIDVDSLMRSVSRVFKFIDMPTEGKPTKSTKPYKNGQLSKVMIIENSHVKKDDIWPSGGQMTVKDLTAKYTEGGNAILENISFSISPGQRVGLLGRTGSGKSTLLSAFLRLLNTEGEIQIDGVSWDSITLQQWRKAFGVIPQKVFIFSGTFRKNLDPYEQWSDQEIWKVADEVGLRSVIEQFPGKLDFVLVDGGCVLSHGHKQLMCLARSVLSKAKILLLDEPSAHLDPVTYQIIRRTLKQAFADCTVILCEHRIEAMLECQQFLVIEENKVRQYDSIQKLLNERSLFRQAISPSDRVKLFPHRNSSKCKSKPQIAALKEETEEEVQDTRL
# TEST: H441 cell ΔF508-CFTR-HRP cell surface assay (Emax and EC50)
QUANTITY_MEASURED: pEC50
Scale for pEC50: -log10 of concentration given in mol/L; no unit attached.

A selection of reference data follows.
| COMPOUND | pEC50 |
| --- | --- |
| O=C(N[C@H](Cc1ccccc1)C(=O)O)c1ccc2ccccc2c1OCc1ccc(C(F)(F)F)cc1 | 5.85 |
| C[C@H](OC(C)(C)C)C(NC(=O)c1ccc2ccccc2c1OCc1ccc(C(F)(F)F)cc1)C(=O)O (some centres unmarked) | 6.00 |
| C#CC(C)(C)C(NC(=O)c1ccc2ccccc2c1OCc1ccc(OC(F)(F)F)cc1)C(=O)O (centres unmarked) | 5.89 |
| O=C(N[C@@H](Cc1ccc(C(F)(F)F)cc1)C(=O)O)c1ccc2ccccc2c1OCc1ccc(C(F)(F)F)cc1 | 5.11 |
| CCC(C)(C)[C@H](NC(=O)c1ccc2cc(F)ccc2c1OCC1CCC(F)(F)CC1)C(=O)O | 5.42 |
| O=C(N[C@@H](Cc1ccccc1)C(=O)O)c1ccc2ccccc2c1OCc1ccc(C(F)(F)F)cc1 | 5.68 |
| C[C@@H](OCc1ccccc1)C(NC(=O)c1ccc2ccccc2c1OCC1CC2CCC1C2)C(=O)O (some centres unmarked) | 4.77 |
| CC(C)(C)[C@H](NC(=O)c1ccc2ccccc2c1OCc1nc2ccccc2s1)C(=O)O | 5.55 |
| COc1ccc2c(OCc3ccc(SC(F)(F)F)cc3)c(C(=O)N[C@H](C(=O)O)C(C)(C)C)ccc2c1 | 5.82 |
| CCC(C)(C)[C@H](NC(=O)c1ccc2ccccc2c1OCc1ccc(C(F)(F)F)cc1)C(=O)O | 6.40 |

The compound "Nc1ccc2c(OCc3ccc(C(F)(F)F)cc3)c(C(=O)N[C@H](C(=O)O)C3CCCC3)ccc2c1" showed pEC50 equal to 4.94

The compound "CC(C)(C)[C@@H](NC(=O)c1ccc2ccc(F)cc2c1OCc1ccc(C(F)(F)F)cc1)C(=O)O" showed pEC50 equal to 6.05

###

# TARGET_ENTITY: human Cystic Fibrosis Transmembrane Conductance Regulator (CFTR) harboring the ΔF508 mutation (Homo sapiens, UniProt P13569, DEL508-508)
# Construct: expressed in transfected cells; host or cells: H441 carcinoma line (G418-selected)
# TEST: H441 cell ΔF508-CFTR-HRP cell surface assay (Emax and EC50)
# Type: cell-based
# TEST_SETTINGS: NCI-H441, NA = Not active
QUANTITY_MEASURED: Emax (%)
Please reply with the bare figure in % and do not write the unit itself.

A selection of reference data follows.
| TEST_SMILES | READOUT_UNITS | Emax |
| --- | --- | --- |
| CC(C)(c1ccccc1)[C@H](NC(=O)c1ccc2ccccc2c1OCc1ccc(C(F)(F)F)cc1)C(=O)O | % | 88.4 |
| Cc1ccc2ccc(C(=O)N[C@H](C(=O)O)C(C)(C)CF)c(OCC3CCCCC3)c2c1 | % | 285 |
| CC(C)(C)[C@H](NC(=O)c1ccc2ccccc2c1OCc1ccc(OC(F)(F)F)cc1)C(=O)O | % | 8.7 |
| CC(C)(C)[C@H](NC(=O)c1ccc2c(F)cccc2c1OCc1ccc(OC(F)(F)F)cc1)C(=O)O | % | 125 |
| O=C(N[C@H](C(=O)O)C12CCC(CC1)C2)c1ccc2ccccc2c1OCc1ccc(OC(F)(F)F)cc1 | % | 103 |

The compound "CC(C)(C)[C@H](NC(=O)c1ccc2ccccc2c1OC[C@H]1CC[C@H](C(F)(F)F)CC1)C(=O)O" showed Emax equal to 154

The compound "O=C(N[C@H](C(=O)O)C(c1ccccc1)c1ccccc1)c1ccc2ccccc2c1OCc1ccc(C(F)(F)F)cn1" showed Emax equal to 49.2

The compound "CC(C)(C)[C@H](NC(=O)c1ccc2ccc(C#N)cc2c1OCc1ccc(OC(F)(F)F)cc1)C(=O)O" showed Emax equal to 176

The compound "CCC(C)(C)[C@H](NC(=O)c1ccc2c(F)cccc2c1OCc1ccc(C(F)(F)F)cc1)C(=O)O" showed Emax equal to 152

###

# TARGET_ENTITY: human Cystic Fibrosis Transmembrane Conductance Regulator (CFTR) harboring the ΔF508 mutation (Homo sapiens, UniProt P13569, DEL508-508)
# Construct: expressed in transfected cells; host or cells: H441 carcinoma line (G418-selected)
# TEST: H441 cell ΔF508-CFTR-HRP cell surface assay (Emax and EC50)
# Assay type: cell-based
# TEST_SETTINGS: NCI-H441, NA = Not active
Consider the reported Emax of an entry and match it to a band in lo: < 80%; mid: ≥ 80% and < 200%; hi: ≥ 200%

Task: Tag the class for CC(OCc1ccccc1)[C@H](NC(=O)c1ccc2cc(F)ccc2c1OCc1ccc(Cl)c(Cl)c1)C(=O)O (stereo in doubt)
Result: mid

Task: Tag the class for "Cc1ccc2c(OCc3ccc(C(F)(F)F)cc3)c(C(=O)N[C@H](C(=O)O)C(C)(C)C)ccc2c1"
Result: mid

Task: Tag the class for "CC(C)(C)[C@H](NC(=O)c1ccc2ccc(Br)cc2c1OCc1ccc(OC(F)(F)F)cc1)C(=O)O"
Result: hi

Task: Tag the class for "CC(C)(c1ccccc1)[C@H](NC(=O)c1ccc2ccccc2c1OCc1ccc(S(C)(=O)=O)cc1)C(=O)O"
Result: lo

###

# TARGET_ENTITY: human Cystic Fibrosis Transmembrane Conductance Regulator (CFTR) harboring the ΔF508 mutation (Homo sapiens, UniProt P13569, DEL508-508)
# Construct: expressed in transfected cells; host or cells: H441 carcinoma line (G418-selected)
# TEST: H441 cell ΔF508-CFTR-HRP cell surface assay (Emax and EC50)
# Format: cell-based
# TEST_SETTINGS: NCI-H441, NA = Not active
Measured Emax by item
Please reply with the bare figure in % and do not write the unit itself.

A selection of reference data follows.
| MOLECULE | Emax / % |
| --- | --- |
| Cc1cc(C)c(C[C@H](NC(=O)c2ccc3ccccc3c2OCc2ccc(C(F)(F)F)cc2)C(=O)O)c(C)c1 | 150 |
| CC(C)(S[C@@H]1C[C@@H]2CC[C@H]1C2)[C@H](NC(=O)c1ccc2ccccc2c1OCc1ccc(SC(F)(F)F)cc1)C(=O)O | 117 |
| CCCC(C)(CC)[C@H](NC(=O)c1ccc2ccc(Cl)cc2c1OCc1ccc(C(F)(F)F)cc1)C(=O)O (stereo partly drawn) | 324 |
| Cc1ccc2ccc(C(=O)N[C@@H](C(=O)O)C(C)(C)C)c(OCc3ccc(OC(F)(F)F)cc3)c2c1 | 109 |

The molecule "CC(C)(C)[C@H](NC(=O)c1ccc2ccccc2c1OCc1ccc(C(F)(F)F)cn1)C(=O)O" showed Emax equal to 151

The molecule CC1(C(NC(=O)c2ccc3ccccc3c2OCc2ccc(SC(F)(F)F)cc2)C(=O)O)CCCCC1 (stereo not drawn) showed Emax equal to 133

The molecule "CC(C)(C)C[C@H](NC(=O)c1ccc2cc(F)ccc2c1OCC1CCC(F)(F)CC1)C(=O)O" showed Emax equal to 52.7

The molecule "CC(C)(C)C[C@H](NC(=O)c1ccc2ccccc2c1OCC1CCCCC1)C(=O)O" showed Emax equal to 135

The molecule "O=C(N[C@H](C(=O)O)C(c1ccccc1)c1ccccc1)c1ccc2cc(F)ccc2c1OCc1ccc(C(F)(F)F)cc1" showed Emax equal to 101

The molecule "CCCC(C)(C)[C@H](NC(=O)c1ccc2ccc(C(F)F)cc2c1OCc1ccc(C(F)(F)F)cc1)C(=O)O" showed Emax equal to 442

The molecule "CC(C)(C)[C@H](NC(=O)c1ccc2ccccc2c1OCc1ccc(Br)cc1)C(=O)O" showed Emax equal to 26.9

The molecule "CCC(C)(C)[C@H](NC(=O)c1ccc2ccc(C)cc2c1OCC1CCCCC1)C(=O)O" showed Emax equal to 246

The molecule "O=C(N[C@H](C(=O)O)C12CC(C(F)(F)F)(C1)C2)c1ccc2ccccc2c1OCc1ccc(SC(F)(F)F)cc1" showed Emax equal to 63.9

The molecule "CC(C)(C)[C@@H](NC(=O)c1ccc2ccc(C(F)F)cc2c1OCc1ccc(OC(F)(F)F)cc1)C(=O)O" showed Emax equal to 70.7

The molecule "CC(C)(C)[C@@H](NC(=O)c1ccc2ccc(F)cc2c1OCc1ccc(OC(F)(F)F)cc1)C(=O)O" showed Emax equal to 63.7

###

Measured EC50 by item
# TARGET_ENTITY: human Cystic Fibrosis Transmembrane Conductance Regulator (CFTR) harboring the ΔF508 mutation (Homo sapiens, UniProt P13569, DEL508-508)
# TEST: H441 cell ΔF508-CFTR-HRP cell surface assay (Emax and EC50)
Please reply with the bare figure in µM and do not write the unit itself.

A selection of reference data follows.
| COMPOUND | QUANTITY_MEASURED | READOUT_UNITS | VAL |
| --- | --- | --- | --- |
| C#CC(C)(C)C(NC(=O)c1ccc2ccccc2c1OCc1ccc(SC(F)(F)F)cc1)C(=O)O (stereo not shown) | EC50 | µM | 1.3 |
| O=C(N[C@H](C(=O)O)C(c1ccccc1)c1ccccc1)c1ccc2ccccc2c1OCc1ccc(OC(F)(F)F)cc1 | EC50 | µM | 2.4 |
| Cc1cc(COc2c(C(=O)NC(C(=O)O)[C@@H](C)OCc3ccccc3)ccc3ccccc23)no1 (stereo partly shown) | EC50 | µM | 12 |
| CC(C)(C)[C@H](NC(=O)c1ccc2ccc(C(F)(F)F)cc2c1OCc1ccc(C(F)(F)F)cc1)C(=O)O | EC50 | µM | 0.3 |
| CC(C)(C)[C@H](NC(=O)c1ccc2ccccc2c1OCc1ccc(C(F)(F)C(F)(F)F)cc1)C(=O)O | EC50 | µM | 0.3 |
| Cc1ccc2ccc(C(=O)N[C@H](C(=O)O)C3(C)CC3)c(OCc3ccc(C(F)(F)F)cc3)c2c1 | EC50 | µM | 1.8 |

Now for the compound whose EC50 we want.
The compound "O=C(N[C@H](C(=O)O)C12CC(C(F)(F)F)(C1)C2)c1ccc2ccccc2c1OCc1ccc(S(=O)(=O)C(F)(F)F)cc1" showed EC50 equal to 2.2
